experiment: yeast display, Sf9 membrane polyspecificity reagent, FACS + sequencing; frameworks hold sequencing errors
Measurement Name: polyreactivity (PSR sort gate)

Worked cases, polyreactivity (PSR sort gate) given:
QVHLVDSGGGLVQAGGSLRFSCAASGSIFGWYAMGWYRQAPGTERELVDSIAVTAGSTYYADSVKWRFPISRDKAKNTGYLQLNRLKPEDTALYSCAADDYSADAVQRFYYWGQGSQVTVSS    low polyreactivity
QVQLVESGGGIVQAGGSLRLSCAASGRIFSVNAMGWYRQAPGKERELVAAITGSGTITYYADSVKGRFTISRDNAKNSVYLQMNSLKPEDTAVYYCAARPVLRYYAGYYYWGQGTQVTVSS    high polyreactivity
QVQLVESGGGLVQAGGSLRLSCAASGSIFAYYVMGWYRKAPGKERELVAAITSVGSTNYADSVKGRFTISRDNAKNTVYLQMNCLKPEDTAVYSCAAVQYQASYYYWGQGTQVTLSS    low polyreactivity
QVQLVESGGGLVQAGGSLRLSCAASGSIFSRNTMGWYRQAPGKERELVATITSGSNTNYADSVKGRFTISRDNAKNTVYLQMNSLKPEDTAVYYWGQGTQVTVSS    low polyreactivity
QVQLVESGGGLVQAGGSLRLNCAASGSTFFGNAMGWYRQAPGKERELVAAISGSGGSTYYADSVKGRFTISRDNAKNTVYLQMNSLKPEDTAVYYCAKYYLTGLARYDYWGQGTQVTVSS    high polyreactivity

Proceeding to the next sequence to report its polyreactivity (PSR sort gate).
### Prompt I have this sequence here, QVHLVESGGGLVQAGGSLRLSCAASGYTRFYALGWYRQAPGKERELVAAISSSGGNTYYADSVKGSFTISRDNAKNTVYLQMNSLKPEDTAVYYCAKYVSYSRTLYDYWGQGTQVTVSS , and I need its recorded polyreactivity (PSR sort gate).
### Response high polyreactivity

====

test: yeast display, Sf9 membrane polyspecificity reagent, FACS + sequencing; frameworks hold sequencing errors
Measurement Name: polyreactivity (PSR sort gate)

Worked cases, polyreactivity (PSR sort gate) given:
QVQLVESGGGLVQAGGSLRLTCAASGFTFYRYDMGWYRQAPGKERELVAAITNNGGNTYYADSVKGRFTISRDNAKNTVYLQMNSLKPDVTAVYYCATKRYYWRGYWGQGTQVSVSS    high polyreactivity
QVQLVESGGGLVQAGGSLRLSCAASGRIFTGYAMGWYRQAPGKERELVAAISSRGGSTYYADSVKGRFTISRDNAKNTVYLQMNSLKPEDTAVYYCNAYQWRHRYTMYYWGQGTQVTVSS    high polyreactivity
QVLLQESGGCLVQAGGSMRLSCAASGYISSWYPMGWYRQAPGKEREFVATIAPGATTYYADSVKGRFTISRDYAKTTVYLQMNSLKPEDTAVSYCAAGPENNDFYSYWGQGTQVTVSR    low polyreactivity
QVQLVESGGGLVQAGGSHRLSSAASARTFQDNPMGWYRQAPGKERELVAAISWRGGSTNYADSVKGRFTITRDNAKNTVYLQMNSLKPEDTAVYYCTRDRRKYGKLDYWGQGTQVTVSS    low polyreactivity
QVQLVASGGGLVQAGGSLRLSCAASGSTLDVYAMGWYRQAPGKERELVASISGSGGRTYYADSVKGRFTISRDNAKNTVYLQLNSQNPEDTAVYYCAADVRSYVASRSYRYDYWGQGNQVTVSS    low polyreactivity
QVQIVESGGGLVQAGGSLRLSCAASGGTFYLYAKGWYRQAPGKERELVAAITTSGGSTYYADSVKGRFTISRDHAKNTVYLQMNSLKPEDTAVYYCNKDLSSTKFDYWGQGTQVTVSS    low polyreactivity

### Prompt I have this sequence here, QVQLVESGGGLVQAGGSLRLSCAASGITLDDYAMGWDRQARGKERELVAAISWSGGSTYYADSVKGRFTISRDNAKNTDYLQMNSLKPADTAVYYCAADPPFRYDYWGQGTQVTVSS , and I need its recorded polyreactivity (PSR sort gate).
### Response low polyreactivity

### Prompt For QVQLVESGGGLVQAGGSLRLRCGASGRTFSSNAMGWYRQAPGKERELVAVITRRGGSTYYADSVKGLFTISRDNAMNNVYLQMNSLKPEDTAVYYCATVAPPQRSGRRSAGEKYYYWGQGTQVTVSS then?
### Response high polyreactivity

### Prompt For QVQLVESGGGLVQAGGSLRLSCAASGSIFVPYAMGWYRQAPGKEREFVAAMYSGGGNTYYADSVKGRFTISRDNAKNTVYLQMNSLKREDTAVYYCAAAYVYSSWSRYDYWGQGTQVTVSS then?
### Response high polyreactivity

====

assay: yeast display, Sf9 membrane polyspecificity reagent, FACS + sequencing; frameworks hold sequencing errors
Measurement Name: polyreactivity (PSR sort gate)

QVQLVESGGGLVQAGGSLRLSCAASGSTFPFYAMGWYRQAPGKERELVAAITASVGNTYYADSVKGRFTISRDNAKNTVYLQMNSLKPEDTAVYYCNADEWYTYIPDFDYWGQGTQVTVSS    low polyreactivity
QVQLVESGGGLVQAGGSLRLSCAASGRTFYPYAMGWYRQAPGKEREFVAAITWTGDSTYYADSVKGRFTISRDNAKNTVYLQMNSLKPEDTAVYYCAADLSSSPYYYGYDYWGQGTQVTVSS    low polyreactivity

====

experiment: yeast display, Sf9 membrane polyspecificity reagent, FACS + sequencing; frameworks hold sequencing errors
Measurement Name: polyreactivity (PSR sort gate)

QVQLVESGGGLVQAGGSLRLSCAASGSTLDRYVMGWYRQATGKERELVAAISRNGGSTYYADSVKGRFTISRDNAKNTVYLQMNSLIPEDTAVYNCARYAGFPYTQGDYWGQGTQVTVSS    high polyreactivity
QVQHVETGGGLVQAGGSLRLSCAASGRIFSYNAMGWYRQPPGKERELVAAISQRGGRTYYADSVKGRFTISRDNAKNTVYLQMNSLKPEDPAVYDCNKDKGQSLSSYGYWGQGTQVTVSS    high polyreactivity
QVQLVESGGGLVQAGGSLRLSCAACGNTFTYYAMGLYRQAPGKERELVASISSGVSTNYADSVKGRFTISRDNAKNTLYLHINSLKPEDTAVYYCARGWSFSTRRFQHTRYYYWGQGTQVTVSS    high polyreactivity
QVQLVESGGGLVQAGGSLRLSCAASGRIFHYYAMGWYRQAPGKERELVASISTGGNTYYADSVKGRFTISRDNAKNTVYLQMNSLKPEVTAVYYCAAVTVRKFYKGINYWYEYWGEGTQVTVSS    high polyreactivity
QVHLVESGGGLVQAGGSLRLSCAASGSIFYIYAMGWYRQAPGKERELVAGITSGGGTYYADSVKGRFTISRDNAKNTVYLQMNSLKPEDTAVYYCAADYLYDYDYWGQGTQVTVSS    high polyreactivity
QVQLVESGGGLVQAGGSLRLSCAASGRIFTIYAMGWYRQAPGKERELVATISRRGGSTYYADSVKGRFTISRDNAKNTVYLQMNSLKPEDTAVYYCAADSVITWWAYDYWGQGTQVTVSS    high polyreactivity
QVQLVESGGGLVQAGGSLRLSCAASGSTVHYMGWYRQAHGKESELVAGISWSGGSTYYADSVKGRFTISRDNAKKTVYLQINSLKPEDTAVYYCAADIKIRLYTTGDYWGQGTQVTVSS    low polyreactivity
QVQLVESGGGLVQAGGSLRLSCAASGRIFVGYTMGWYRQAPGKERELVAAITSGGSTYYADSVKGRFTISRDNAKNTVYLQMNSLNPEDTADYYCNAAYQFDSYHLGGNRYEYWGQGTQETVSS    low polyreactivity
QVQLVESGGGLVQAGGSLRLSCAASGRIFRGYTMGWYRQAPGKEREFVAAITANGGRTYYADSVKGRFTISRDTAKNTVYLKMNRLKPEDTAVYYCNARTYTYRGSFDYWVQGTQVTVSS    high polyreactivity

Proceeding to the next sequence to report its polyreactivity (PSR sort gate).
### Prompt I have this sequence here, QVQLVESGGGLVQAGGSLRLSCAASGFTFAFNAMGWYRQAPGKERELVAAISGTVSRTRYADSVKGRFTISRDNAKNTVYLQMNSLKPEDTAVYYCAARGYYRYSYPYQPYRMDYWGQGTQVTVSS , and I need its recorded polyreactivity (PSR sort gate).
### Response high polyreactivity

====

assay: yeast display, Sf9 membrane polyspecificity reagent, FACS + sequencing; frameworks hold sequencing errors
Measurement Name: polyreactivity (PSR sort gate)

Worked cases, polyreactivity (PSR sort gate) given:
QVQLVESGRGLVQAGGSLRLSCAASGLIFTANAMGWYRQAPGKERELVASITRDGGTNYADSVKVRFTISRDNAKNTVYLQMNSLKPEDTAVYYCAKESGSVLTLYDYWGQGTQVTVSS    low polyreactivity
QVQLVESGGRLVQAGGSLRLSCAASGRIFTWYAMGWYRQAPGKERELVAAISWTGGTTYYADSVKGRFTISRVNAKNTVYLQMNSMKPEDTEVYYCNKVVGFRSNFGGYGYCGQGTQVTVSS    high polyreactivity
QVQLVESGGGLVQAGGSLRLSCAASGSIFAINAMGWYRQAPGKERELVAAIRSGGRTYSADSEKGRFTISRDNAKITVYLQMNSLKPEDTAVYYCTDGGKWIGSDYWGQGTQVTVSS    high polyreactivity
QVQVVESGGGLVQAGGSLRLRCAASGRIFAHYAMGWYRQAPGKEREMVAAISSSGTRTYYADSVKGRFTISRDNAKKTVYLQMNSLKPEDTAVYYCAKDSYHTVWGGYWGQGTQVTVSS    high polyreactivity
QVQLVESGGGLVQAGGSLRLSCAASGFIFYKNAMGWYRQAPGKERELVADISKRGASTYYADSVKGRFTISRDNAKNTVYLQMNSLKPEDTAVYYCAAGYYRASTTVTHGGIEGDSWGQGTQVTVSS    high polyreactivity

### Prompt I have this sequence here, QVQLVESGGGLVQAGGSLRLSCDASGIIFRGNSMGWYRQAPGKERELVAAISRSGRTNYADSVKGSFTISRDNAKNTVYLQMYSLKPEDTAVYYCAVDKRYGRVFGRDYDYWGQGTQVTESS , and I need its recorded polyreactivity (PSR sort gate).
### Response high polyreactivity

### Prompt For QVQLVESGGGLVQAGGSLRLSCAASGLTFGGYAMGWYRQAPGKERELVAAISRSGTSTYYADSVKGRFTISRDNAKNTVYLQMNSLKPEDTAVYYCAKELYSWLQGYRGEGTMDYWGQGTQVTVSS then?
### Response high polyreactivity

### Prompt For QVQLQESGGGLVQAGGSLRLSCAASGSIFDGFNMGWYRQAPGKERECVAAISYGASTYYADSVKGRFTGSRDNAKNSVYLQMNSLKPEDTAVYYCAVYDELYHVLVYWGRGTQVTVSS then?
### Response low polyreactivity

### Prompt For QVQLVESGGGLVQAGGSLRLSCAASGITFSPYTMGWYRQAPGKERELVAAINSGGRTNYADSVKGRFTISRDNAKNTVYLQMNSLKPEDTAVYYCTKRGHPARLGYYYWGQGTQVTVSS then?
### Response low polyreactivity
